experimental_system: human PD-L1 (human) (UniProt Q9NZQ7)
Sequence (Q9NZQ7 19-290): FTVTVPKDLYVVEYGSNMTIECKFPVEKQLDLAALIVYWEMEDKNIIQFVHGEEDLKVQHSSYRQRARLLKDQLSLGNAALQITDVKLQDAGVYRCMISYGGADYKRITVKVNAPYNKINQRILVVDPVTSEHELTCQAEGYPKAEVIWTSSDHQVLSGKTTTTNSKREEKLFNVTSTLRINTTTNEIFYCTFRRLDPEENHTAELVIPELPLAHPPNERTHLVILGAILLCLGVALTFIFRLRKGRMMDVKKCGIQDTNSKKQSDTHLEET
assay_name: flow cytometry, CHO cells stably expressing PD-L1
observable: Fold change to WT (fold)
Supply the numeric figure in fold, leaving out any unit text.

In the examples that follow, each entry is paired with its recorded Fold change to WT.
CD80 IgV-Fc S15T/H18Y/E35D/M47V/T62A/N64S/A71G/L85Q/D90N (Fc fusion) VIHVTKEVKEVATLTCGYNVSVEELAQTRIYWQKDKKMVLTMMSGDVNIWPEYKNRTIFDIANSLSIVILGLRPSDEGTYECVVQKYEKNAFKREHLAEVTLSVKAD: 166
CD80 IgV-Fc E35D/D46E/M47L/V68M/L85Q/F92L (Fc fusion) VIHVTKEVKEVATLSCGHNVSVEELAQTRIYWQKDKKMVLTMMSGELNIWPEYKNRTIFDITNNLSIMILALRPSDEGTYECVVQKYEKDALKREHLAEVTLSVKAD: 158
CD80 IgV-Fc E35D/M47L/V68M/A71G/L85Q/D90G (Fc fusion) VIHVTKEVKEVATLSCGHNVSVEELAQTRIYWQKDKKMVLTMMSGDLNIWPEYKNRTIFDITNNLSIMILGLRPSDEGTYECVVQKYEKGAFKREHLAEVTLSVKAD: 202

Kindly consider the entry below.
Please report Fold change to WT for the following binder: CD80 IgV-Fc H18Y/V22A/E35D/T41S/M47V/T62N/A71G/A91G (Fc fusion) VIHVTKEVKEVATLSCGYNVSAEELAQTRIYWQKDKKMVLSMMSGDVNIWPEYKNRTIFDINNNLSIVILGLRPSDEGTYECVVLKYEKDGFKREHLAEVTLSVKAD 101
